Listing of recorded growth inhibition by entry.
assay: NCI Yeast Anticancer Drug Screen. Data for the rad50 strain (AID 155);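 note: 0% = growth of vehicle-only cultures of the same strain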; details: S. cerevisiae rad50 strain growth inhibition; at 50.0 µM; active compounds read high
Compounds without any hit were thinned out: in the full panel of roughly 79,000, 15% have a hit.
recorded-metric: growth inhibition (%)

{"compound": "O=C1CCC2=C(N1)C(=O)C=CC2=O", "units-label": "%", "value-reported": 1.8}
{"compound": "CC(C)CNC(=O)C(=O)NCC(C)C", "units-label": "%", "value-reported": -4.65}
{"compound": "CC(=O)OC(C)C(=O)OCC1OC(OC(=O)C(C)OC(C)=O)C(OC(=O)C(C)OC(C)=O)C(OC(=O)C(C)OC(C)=O)C1OC(=O)C(C)OC(C)=O (stereo not given)", "units-label": "%", "value-reported": 7.6}
{"compound": "C(/C=N/NC1=NCCCN1)=N\\NC1=NCCCN1", "units-label": "%", "value-reported": -3.5}
{"compound": "CSc1nc(C=O)nc(SC)n1", "units-label": "%", "value-reported": 1.25}
{"compound": "CCCC(=O)Oc1c(Cl)cc(Cl)cc1-c1ccccc1", "units-label": "%", "value-reported": 12.8}
{"compound": "Cc1ccccc1NN", "units-label": "%", "value-reported": 29.1}
{"compound": "N/C(=N\\C(=O)OCCOC(=O)/N=C(/N)c1ccccc1)c1ccccc1", "units-label": "%", "value-reported": -3.5}
{"compound": "C(=N\\c1oc(-c2ccccc2)nc1SCc1ccccc1)/c1ccccc1", "units-label": "%", "value-reported": 2.75}
{"compound": "Oc1ccc2c(c1)OCC(O)(c1ccccc1O)C2 (stereo not given)", "units-label": "%", "value-reported": 23.8}
{"compound": "CSc1nc(C)c2c(n1)N(c1ccc(Cl)cc1)CC2", "units-label": "%", "value-reported": 1.7}
{"compound": "N#Cc1c(C#N)c(-c2ccccc2)n(-c2ccccc2)c1N", "units-label": "%", "value-reported": 10.7}
{"compound": "COc1ccc(/C=C2\\N=C(N/N=C\\C(O)C(O)C(O)C(O)CO)NC2=O)cc1 (stereo not given)", "units-label": "%", "value-reported": -7.3}
{"compound": "CN(Cc1cnc2nc(N)nc(N)c2n1)c1ccc(C(=O)NC(CCC(=O)OCc2cc3c(cc2Cl)OCO3)C(=O)OCc2cc3c(cc2Cl)OCO3)cc1 (stereo not given)", "units-label": "%", "value-reported": 16.9}
{"compound": "COCCCN1C(=O)C2c3[nH]c4ccccc4c3C3CCC(C(C)(C)C)CC3C2C1=O (stereo not given)", "units-label": "%", "value-reported": 34.9}
{"compound": "N=C(N)SCCSC(=N)N", "units-label": "%", "value-reported": -13.5}
{"compound": "COc1ccc(C2=NCCO2)cc1N", "units-label": "%", "value-reported": 3.6}
{"compound": "N#CC(NCc1ccccc1)C(O)c1ccccc1 (stereo not given)", "units-label": "%", "value-reported": 17.8}
{"compound": "COc1ccccc1C1OC(C)C(C)O1 (stereo not given)", "units-label": "%", "value-reported": -16.1}
{"compound": "CCN(CC)Cc1cc(C)c(O)c(N=Nc2ccc(-c3ccc(N)c(OC)c3)cc2OC)c1C", "units-label": "%", "value-reported": -21.4}
{"compound": "COC(=O)CC1C(OC)OC23CCC1C2(C)CCC1C3CCC2CC(OC3CCCCO3)CCC21C (stereo not given)", "units-label": "%", "value-reported": 19.1}
{"compound": "Cc1ccc(-c2oc(-c3ccc(C)cc3)c3cc(C)c(C)cc23)cc1", "units-label": "%", "value-reported": 4.8}
{"compound": "CC(O)(c1ccco1)c1nc2ccccc2s1 (stereo not given)", "units-label": "%", "value-reported": -10.4}
{"compound": "CCC1CCC(OC(=O)Nc2cccc3ccccc23)CC1 (stereo not given)", "units-label": "%", "value-reported": 12.2}
{"compound": "Cn1c(N)c(/C=C/C(=O)Oc2ccccc2)c(=O)n(C)c1=O", "units-label": "%", "value-reported": 49.7}
{"compound": "COc1ccc(N=Nc2ccc(OC)cc2C)c(C)c1", "units-label": "%", "value-reported": 1.7}
{"compound": "CN1N(c2ccccc2)C(=O)C2=NC=C(C(=O)c3ccccc3)C(=N)C21C (stereo not given)", "units-label": "%", "value-reported": 6.2}
{"compound": "C=Cc1c(C)c(OC)cc2c1Oc1ccc(OC)c(C)c1CC2", "units-label": "%", "value-reported": 0.75}
{"compound": "Nc1nnc2c(=O)[nH]cnc2n1", "units-label": "%", "value-reported": 2.25}
{"compound": "O=C1C=C2CCCCCCCCC(C1)C2 (stereo not given)", "units-label": "%", "value-reported": -1.85}
{"compound": "O=C1C=CC2C=CC1C=C2", "units-label": "%", "value-reported": -1.55}
{"compound": "CC(Cc1ccco1)(C(=O)O)C(=O)O", "units-label": "%", "value-reported": 11.8}
{"compound": "CCC(C#N)NC(=O)NC(C#N)CC (stereo not given)", "units-label": "%", "value-reported": 0.75}
{"compound": "Cc1cc(-c2ccccc2)nc(Nc2nc3ccccc3o2)n1", "units-label": "%", "value-reported": 9.2}
{"compound": "CC12CCCC1C1CC=C3CC(SC4CCC5(C)C(=CCC6C7CCCC7(C)CCC65)C4)CCC3(C)C1CC2 (stereo not given)", "units-label": "%", "value-reported": -2.05}
{"compound": "Nc1ncc2ncn(CCO)c2n1", "units-label": "%", "value-reported": -22.1}
{"compound": "CCCCC(CC)C(C(C)=O)N(C)C (stereo not given)", "units-label": "%", "value-reported": 33.1}
{"compound": "COC(=O)C1(C(=O)OC)C2CCCCC21 (stereo not given)", "units-label": "%", "value-reported": 4.65}
{"compound": "O=C1c2cc3c(cc2C(=O)c2[nH]ncc21)OCO3", "units-label": "%", "value-reported": 60.5}
{"compound": "O=C(/C=C/c1ccccc1)NC1C=Nc2ccc(Cl)cc2NC1=O (stereo not given)", "units-label": "%", "value-reported": 39}
{"compound": "CC(C)CCC1(C2CCOCC2)NC(=O)NC1=O (stereo not given)", "units-label": "%", "value-reported": -9.85}
{"compound": "CNC(=O)c1ccccc1C(O)c1ccc(C)cc1 (stereo not given)", "units-label": "%", "value-reported": 7.65}
{"compound": "CN(C)C1C(=O)c2ccccc2C1=O", "units-label": "%", "value-reported": -34.6}
{"compound": "CN(C)c1ccc(/C=C/c2ccnc3ccc(Cl)cc23)cc1", "units-label": "%", "value-reported": 23}
{"compound": "Cc1ccc(S(=O)(=O)C(CC(=O)O)c2ccccc2)cc1 (stereo not given)", "units-label": "%", "value-reported": 0.35}
{"compound": "Cc1nc2c(cc1C(=O)N/N=C/c1ccc([N+](=O)[O-])cc1)c(=O)n(C)c(=O)n2C", "units-label": "%", "value-reported": -33.4}
{"compound": "COC(=O)c1ccccc1N=Cc1ccc(N(CCC#N)S(=O)(=O)c2ccccc2)cc1", "units-label": "%", "value-reported": -2.05}
{"compound": "CC/C=N/NC(=O)OCC", "units-label": "%", "value-reported": -9.8}
{"compound": "CC(=O)Nc1cc2c3c(c1)CCCN3CCC2", "units-label": "%", "value-reported": -24.4}
{"compound": "Cc1[nH]nc2c1NC(=O)OC(C)C2 (stereo not given)", "units-label": "%", "value-reported": 11.8}
